target: IDH1 R132H enzyme (Homo sapiens (Human), UniProt O75874, R132H); assay: Mutant IDH1 R132H biochemical assay; conditions: NADPH consumption, luminescent readout; 1.5 nM enzyme, 1 μM NADPH, 250 μM α-KG, 30 minutes, 32° C.
Sequence (O75874 whole entry R132H): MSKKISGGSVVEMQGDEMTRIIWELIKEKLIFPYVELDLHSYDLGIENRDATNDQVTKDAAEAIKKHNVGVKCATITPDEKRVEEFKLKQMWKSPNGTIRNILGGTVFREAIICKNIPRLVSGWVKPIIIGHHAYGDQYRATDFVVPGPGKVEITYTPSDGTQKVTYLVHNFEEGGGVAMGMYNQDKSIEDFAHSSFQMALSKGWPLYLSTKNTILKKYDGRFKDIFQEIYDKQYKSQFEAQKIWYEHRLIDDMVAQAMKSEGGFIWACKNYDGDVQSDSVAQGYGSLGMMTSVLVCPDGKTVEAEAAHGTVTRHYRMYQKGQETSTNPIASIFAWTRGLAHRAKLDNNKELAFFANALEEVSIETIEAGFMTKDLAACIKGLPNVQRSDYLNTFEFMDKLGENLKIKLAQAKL
reportedMetric: pIC50
Note on units: pIC50 is unitless, being -log10 of a concentration expressed in mol/L.

INPUT: Fill in: pIC50 of C[C@H]1C[C@@H](n2c(Cc3ccc(OC(F)(F)F)cc3)nc3cc(C(=O)O)c(OCC(F)(F)F)cc32)CC(C)(C)C1 (stereo in doubt) [Example 2-47-1] is ___
OUTPUT: 5.70

INPUT: Fill in: pIC50 of COC(=O)c1ccc2c(c1)nc(Cc1ccc(OC(F)(F)F)cc1)n2[C@H]1C[C@@H](C)CC(C)(C)C1 (single isomer, unassigned) [Example 2-3-1] is ___
OUTPUT: 5.77

INPUT: Fill in: pIC50 of C[C@@H]1C[C@H](n2c(Cc3ccc(OC(F)(F)F)cc3)nc3cc(C(=O)O)c(OCC(F)(F)F)cc32)CC(C)(C)C1 (stereo in doubt) is ___
OUTPUT: 6.19

INPUT: Fill in: pIC50 of C[C@H]1C[C@@H](n2c(C(C)(C)c3ccc(OC(F)(F)F)cc3)nc3cc(C(=O)O)ccc32)CC(C)(C)C1 (stereo in doubt) is ___
OUTPUT: 5.42

INPUT: Fill in: pIC50 of CC(C)Oc1cc2c(cc1C(=O)O)nc(Cc1ccc(OC(F)(F)F)cc1)n2[C@@H]1C[C@H](C)CC(C)(C)C1 (stereo in doubt) [Example 2-46] is ___
OUTPUT: 6.48

INPUT: Fill in: pIC50 of COc1cc2c(cc1C(=O)O)nc(Cc1ccc(OC(F)(F)F)cc1)n2[C@H]1C[C@@H](C)CC(C)(C)C1 (stereo in doubt) is ___
OUTPUT: 7.70

INPUT: Fill in: pIC50 of Cc1[nH]c2ccc(F)cc2c1Cc1nc2cc(C(=O)O)ccc2n1[C@@H]1C[C@H](C)CC(C)(C)C1 (stereo in doubt) is ___
OUTPUT: 5.15

INPUT: Fill in: pIC50 of `COC(=O)c1ccc2c(nc(Cc3ccc(OC(F)(F)F)cc3)n2C2CC(C)(C)CC(C)(C)C2)c1F` is ___
OUTPUT: 6.10

INPUT: Fill in: pIC50 of COC(=O)c1cc2nc(Cc3ccc(OC(F)(F)F)cc3)n([C@H]3C[C@@H](C)CC(C)(C)C3)c2cc1C (single isomer, unassigned) [Example 2-18-2] is ___
OUTPUT: 5.92

INPUT: Fill in: pIC50 of CC(C)c1ccc(Cc2nc3cc(C#N)ccc3n2[C@H]2C[C@@H](C)CC(C)(C)C2)cc1 (racemic) is ___
OUTPUT: 6.46

INPUT: Fill in: pIC50 of COC(=O)c1ccc2c(c1)nc(-c1ccc(OC(F)(F)F)cc1)n2[C@H]1C[C@@H](C)CC(C)(C)C1 (single isomer, unassigned) [Example 2-1-2] is ___
OUTPUT: 5.24

INPUT: Fill in: pIC50 of COC(=O)c1ccc2c(c1)nc(Cc1ccc(C)cc1)n2[C@H]1C[C@@H](C)CC(C)(C)C1 (racemic) is ___
OUTPUT: 5.82

INPUT: Fill in: pIC50 of Cc1nc(-c2ccccc2)sc1Cc1nc2cc(C(=O)O)ccc2n1[C@@H]1C[C@H](C)CC(C)(C)C1 (stereo in doubt) is ___
OUTPUT: 5.64

INPUT: Fill in: pIC50 of COc1cc2c(cc1C(=O)O)nc(Cc1ccc(OC(F)(F)F)cc1)n2[C@@H]1C[C@H](C)CC(C)(C)C1 (single isomer, unassigned) [Example 2-45-1] is ___
OUTPUT: 6.52

INPUT: Fill in: pIC50 of C[C@H]1C[C@@H](n2c(Cc3ccc(C(F)(F)F)cc3)nc3cc(C(=O)O)ccc32)CC(C)(C)C1 (stereo in doubt) is ___
OUTPUT: 6.92

INPUT: Fill in: pIC50 of COc1cc2c(cc1CCC(=O)O)nc(Cc1ccc(OC(F)(F)F)cc1)n2[C@@H]1C[C@H](C)CC(C)(C)C1 (racemic) [Example 2-50] is ___
OUTPUT: 7.52

INPUT: Fill in: pIC50 of COC(=O)c1ccc2c(c1)nc(Cc1ccc(OC(C)C)cc1)n2[C@H]1C[C@@H](C)CC(C)(C)C1 (racemic) is ___
OUTPUT: 5.82

INPUT: Fill in: pIC50 of `CC1(C)CC(n2c(Cc3ccc(OC(F)(F)F)cc3)nc3c(F)c(C(=O)O)ccc32)CC(C)(C)C1` is ___
OUTPUT: 7.10

INPUT: Fill in: pIC50 of C[C@H]1C[C@@H](n2c(Cc3ccc(OC(F)(F)F)cc3)nc3cc(C(=O)O)c(OCC(F)(F)F)cc32)CC(C)(C)C1 (stereo in doubt) [Example 2-47] is ___
OUTPUT: 6.00

INPUT: Fill in: pIC50 of CC(C)Oc1ccc(Cc2nc3cc(C#N)ccc3n2[C@H]2C[C@@H](C)CC(C)(C)C2)cc1 (racemic) is ___
OUTPUT: 5.82

INPUT: Fill in: pIC50 of COc1cc2c(cc1CCC(=O)O)nc(Cc1ccc(OC(F)(F)F)cc1)n2[C@H]1C[C@@H](C)CC(C)(C)C1 (stereo in doubt) is ___
OUTPUT: 7.70

INPUT: Fill in: pIC50 of C[C@H]1C[C@@H](n2c(Cc3ccccc3)nc3cc(C(=O)O)ccc32)CC(C)(C)C1 (stereo in doubt) is ___
OUTPUT: 5.62

INPUT: Fill in: pIC50 of Cc1cc2c(cc1CCC(=O)O)nc(Cc1ccc(OC(F)(F)F)cc1)n2[C@@H]1C[C@H](C)CC(C)(C)C1 (stereo in doubt) is ___
OUTPUT: 7.10

Values from patent US10179123B2
